Molecular target: human recombinant mGluR5 (Homo sapiens, UniProt P41594)
Construct: expressed in transfected cells; host or cells: HEK 293 cell line cultured with tetracycline, hygromycin and geneticin; tetracycline removed 3-7 days before the assay
Sequence (P41594 21-1212): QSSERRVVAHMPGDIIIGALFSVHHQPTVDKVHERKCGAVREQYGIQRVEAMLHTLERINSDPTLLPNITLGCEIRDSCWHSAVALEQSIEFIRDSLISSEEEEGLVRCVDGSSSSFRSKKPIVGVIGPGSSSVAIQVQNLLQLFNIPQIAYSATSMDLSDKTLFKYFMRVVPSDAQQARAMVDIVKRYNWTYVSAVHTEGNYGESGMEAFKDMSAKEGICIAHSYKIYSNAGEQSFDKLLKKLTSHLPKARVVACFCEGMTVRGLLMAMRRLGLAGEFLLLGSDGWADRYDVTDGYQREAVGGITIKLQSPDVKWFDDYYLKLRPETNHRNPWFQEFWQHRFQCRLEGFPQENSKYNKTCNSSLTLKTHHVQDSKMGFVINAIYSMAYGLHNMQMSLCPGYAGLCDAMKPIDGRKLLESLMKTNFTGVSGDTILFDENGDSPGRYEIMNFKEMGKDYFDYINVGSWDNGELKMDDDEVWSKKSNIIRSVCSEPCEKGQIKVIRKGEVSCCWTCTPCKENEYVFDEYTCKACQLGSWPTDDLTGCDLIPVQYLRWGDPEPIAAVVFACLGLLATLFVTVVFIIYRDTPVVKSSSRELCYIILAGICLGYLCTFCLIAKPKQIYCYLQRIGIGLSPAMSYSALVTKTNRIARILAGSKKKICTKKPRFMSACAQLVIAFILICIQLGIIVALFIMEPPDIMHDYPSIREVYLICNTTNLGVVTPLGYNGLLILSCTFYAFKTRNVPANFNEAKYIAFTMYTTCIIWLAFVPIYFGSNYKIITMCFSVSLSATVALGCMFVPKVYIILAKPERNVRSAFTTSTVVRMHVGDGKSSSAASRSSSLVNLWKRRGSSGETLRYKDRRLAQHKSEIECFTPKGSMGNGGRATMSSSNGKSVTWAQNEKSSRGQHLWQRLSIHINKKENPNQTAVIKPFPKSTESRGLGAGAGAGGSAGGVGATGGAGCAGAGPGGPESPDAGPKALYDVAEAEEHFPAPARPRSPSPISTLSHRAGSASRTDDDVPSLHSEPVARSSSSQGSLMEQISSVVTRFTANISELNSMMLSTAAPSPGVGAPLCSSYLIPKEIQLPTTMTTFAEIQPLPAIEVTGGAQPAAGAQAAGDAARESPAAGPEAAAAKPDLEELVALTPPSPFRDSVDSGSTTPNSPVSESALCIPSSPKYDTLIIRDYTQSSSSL
Experiment: positive modulation of mGluR5, calcium based FLIPR assay in HEK 293 cells
Details: HEK 293 cell line expressing human recombinant mGluR5; EC50 of the modulation of the glutamate response (glutamate approx. 5% basal stimulation); peak height of Ca release fluorescence signal
Experimental: The positive modulation of mGluR5 is measured in a HEK 293 cell line expressing human recombinant mGluR5 and is detected with calcium based FLIPR assay. […] 20 μl of each compound solution are then transferred to the assay plate and the Ca2+ kinetic is measured to determine any intrinsic compound activity. […] The peak height of the Ca release related fluorescence signal (9-66) is used for the EC50. The EC50 of the modulation is calculated over a nonlinear regression with GraphPad Prism (Table 1).
valueKind: EC50 (nM)
Supply the numeric figure in nM, leaving out any unit text.

Task: Look up and report measured EC50 (human recombinant mGluR5 (Homo sapiens, UniProt P41594)) for the following compound: O=C(Cn1nc(-c2ccc(F)cc2)nc1-c1ccc(F)cc1)N1CCN(c2cc(NC3CCOCC3)ncn2)CC1
Output: 510

Task: Specify the recorded EC50 for CCc1cccc(-c2nc(-c3ccccc3)n(CC(=O)N3CCN(c4ncccn4)CC3)n2)c1 , system: human recombinant mGluR5 (Homo sapiens, UniProt P41594).
Output: 15

Task: Answer briefly: EC50 recorded on human recombinant mGluR5 (Homo sapiens, UniProt P41594) for CCc1nc(-c2ccc(F)c(C)c2)nn1CC(=O)N1CCN(c2cc(OC)ccn2)CC1
Output: 991

Task: Enter measured EC50, system human recombinant mGluR5 (Homo sapiens, UniProt P41594), for the compound shown: Cc1ccnc(N2CCN(C(=O)Cn3nc(-c4ccc(F)cc4)nc3CCc3ccccc3)CC2)c1
Output: 560

* * *

Measured pEC50 of individual entries
Biological target: human recombinant mGluR5 (Homo sapiens, UniProt P41594)
Construct: tetracycline removed 3-7 days before the assay
Experiment: positive modulation of mGluR5, calcium based FLIPR assay in HEK 293 cells
Details: HEK 293 cell line expressing human recombinant mGluR5; EC50 of the modulation of the glutamate response (glutamate approx. 5% basal stimulation); peak height of Ca release fluorescence signal
Keep in mind that pEC50 stands for -log10 of concentration in molar terms.

- compound: "COc1ccc(-c2nc(-c3ccc(F)cc3)n(CC(=O)N3CCN(c4ncccn4)CC3)n2)cc1 [Example 07.04.033.]"
  pEC50: 7.43
- compound: "CN(C)c1ccnc(N2CCN(C(=O)Cn3nc(-c4ccc(F)cc4)nc3-c3ccc(F)cc3)CC2)c1 [Example 07.03.17.]"
  pEC50: 6.22
- compound: "O=C(Cn1nc(-c2ccc(F)cc2)nc1-c1ccc(F)cc1)N1CCN(c2ncccn2)CC1 [Example 07.01.01.]"
  pEC50: 7.62

Task: Note down pEC50 recorded for O=C(Cn1nc(-c2cccc(F)c2)nc1-c1ccccc1)N1CCN(c2ncccn2)CC1 [Example 07.10.07.]
Output: 6.72

* * *

Biological target: human recombinant mGluR5 (Homo sapiens, UniProt P41594)
Construct: tetracycline removed 3-7 days before the assay
Assay: positive modulation of mGluR5, calcium based FLIPR assay in HEK 293 cells
Conditions: HEK 293 cell line expressing human recombinant mGluR5; EC50 of the modulation of the glutamate response (glutamate approx. 5% basal stimulation); peak height of Ca release fluorescence signal
This listing pairs compounds with measured log10 of EC50.
Please be aware that the numbers have been log10-transformed from EC50 in nM.

- compound: "CCCCc1nc(-c2ccc(F)c(C)c2)nn1CC(=O)N1CCN(c2cc(OC)ccn2)CC1"
  subjectOfTest: "human recombinant mGluR5 (Homo sapiens, UniProt P41594)"
  testResult: 2.41
- compound: "COc1ccc(-c2nc(-c3ccc(OC)cc3)n(CC(=O)N3CCN(c4ccc(C#N)cn4)CC3)n2)cc1"
  subjectOfTest: "human recombinant mGluR5 (Homo sapiens, UniProt P41594)"
  testResult: 3.11
- compound: "N#Cc1ccnc(N2CCN(C(=O)Cn3nc(-c4ccc(F)cc4)nc3-c3ccc(F)cc3)CC2)n1"
  subjectOfTest: "human recombinant mGluR5 (Homo sapiens, UniProt P41594)"
  testResult: 2.09
- compound: "CCOc1ccnc(N2CCN(C(=O)Cn3nc(-c4ccc(OC)cc4)nc3-c3ccccc3)CC2)c1"
  subjectOfTest: "human recombinant mGluR5 (Homo sapiens, UniProt P41594)"
  testResult: 2.00

Task: For human recombinant mGluR5 (Homo sapiens, UniProt P41594), give log10 of EC50 of the listed compound: CCc1ccnc(N2CCN(C(=O)Cn3nc(-c4ccc(F)cc4)nc3-c3ccc(F)cc3)CC2)c1
Output: 1.63

Task: Retrieve log10 of EC50 on human recombinant mGluR5 (Homo sapiens, UniProt P41594); query COc1cc(N2CCN(C(=O)Cn3nc(-c4ccc(F)c(Cl)c4)nc3-c3ccccc3)CC2)ncn1
Output: 2.00

Task: State, for human recombinant mGluR5 (Homo sapiens, UniProt P41594), measured log10 of EC50 of the compound listed here: O=C(Cn1nc(-c2ccc(F)cc2)nc1CCc1ccccc1)N1CCN(c2ncccn2)CC1
Output: 2.51

Task: Name the value of log10 of EC50 reported for CN(C)c1cncc(N2CCN(C(=O)Cn3nc(-c4ccc(F)cc4)nc3-c3ccc(F)cc3)CC2)n1 when tested on human recombinant mGluR5 (Homo sapiens, UniProt P41594).
Output: 2.45

Task: Answer with log10 of EC50 of Cc1cc(-c2nc(-c3ccccc3)n(CC(=O)N3CCN(c4ncc(Br)cn4)CC3)n2)ccc1Br measured for human recombinant mGluR5 (Homo sapiens, UniProt P41594).
Output: 1.88
